# target-under-test: Beta-secretase 1 (Homo sapiens, UniProt P56817)
# Sequence (P56817 whole entry, the tested form may be a part): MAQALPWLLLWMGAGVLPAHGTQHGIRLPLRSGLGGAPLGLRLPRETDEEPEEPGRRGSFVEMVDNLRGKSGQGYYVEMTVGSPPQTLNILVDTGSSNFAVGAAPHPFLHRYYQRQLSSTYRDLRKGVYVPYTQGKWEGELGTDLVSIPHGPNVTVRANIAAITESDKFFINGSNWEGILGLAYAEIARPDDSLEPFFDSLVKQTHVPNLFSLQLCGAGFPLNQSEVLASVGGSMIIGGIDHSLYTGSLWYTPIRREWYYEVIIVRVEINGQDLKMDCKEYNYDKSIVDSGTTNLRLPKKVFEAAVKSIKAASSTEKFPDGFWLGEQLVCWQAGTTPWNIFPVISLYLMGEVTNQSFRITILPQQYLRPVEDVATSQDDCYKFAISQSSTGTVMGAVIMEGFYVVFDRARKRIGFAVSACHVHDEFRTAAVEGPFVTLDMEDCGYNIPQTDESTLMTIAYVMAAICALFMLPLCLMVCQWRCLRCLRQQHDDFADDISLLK
# assay-name: Inhibition of BACE1 in human SH-SY5Y cells expressing betaAPP assessed as reduction in amyloidbeta (1 to 40 residues) level incubated for 24 hrs by HTRF assay
# Type: cell-based
Reported IC50 values for the following molecules.

molecule	IC50 / nM
C[C@]1(c2cc(NC(=O)c3ccc(C#N)cn3)ccc2F)N=C(N)OCC12CC(F)(F)C2	0.615
C[C@H]1SC(N)=N[C@](C)(c2cc(NC(=O)c3ccc(OC(F)F)cn3)ccc2F)[C@H]1F	1.2
COC[C@H]1SC(N)=N[C@](C)(c2cc(NC(=O)c3ccc(C#N)cn3)ccc2F)[C@H]1F	1
C[C@]1(c2cc(NC(=O)c3ccc(C#N)cn3)ccc2F)N=C(N)O[C@H]2[C@@H]1OCC2(F)F	0.391
C[C@H]1SC(N)=N[C@](C)(c2cc(NC(=O)c3cnc(F)cn3)ccc2F)C12CC(F)(F)C2	5.4
CC1(c2cc(NC(=O)c3ccc(C#N)cn3)ccc2F)Cc2ncc(F)cc2C(N)=N1 (stereo unspecified)	2
